- Test system: MDA-N
- assayName: NCI tumour cell line growth inhibition, 48 h
TGI values by entry

The examples below pair each entry with its known result.
| compound | assayEndpoint | recordedMeasurement |
| --- | --- | --- |
| CN(C)S(=O)(=O)n1ccnc1 | TGI | > 100 µM |
| Nc1nc(N)nc(-c2cnc3ccccc3c2)n1 | TGI | > 100 µM |
| NNC(=O)CC(=O)Nc1ccc(C(=O)O)cc1 | TGI | > 100 µM |
| CC(C)(C)C1CCC2c3c([nH]c4ccccc34)C3C(=O)N(c4cccc(Cl)c4)C(=O)C3C2C1 (configuration not stated) | TGI | 24.7 µM |
| O=[N+]([O-])c1nccn1CCCN=c1c2ccccc2n(O)c2ccccc12 | TGI | > 100 µM |

Please indicate TGI recorded for `Nc1ccc(-c2nc3cc(F)ccc3s2)cc1Br` > 100 µM

Please indicate TGI recorded for `NC(N)=NS(=O)(=O)c1ccc(Nc2c3ccccc3nc3ccc(C(=O)Nc4ccc(S(N)(=O)=O)cc4)cc23)cc1` > 100 µM

Please indicate TGI recorded for CC(C)c1ccc2c(c1)[C@@]1(C)CC[C@H](C)C(C)(C)C1CC2 (some centres not stated) 56.3 µM

Please indicate TGI recorded for `CCOC(=O)c1ccc(-c2cccs2)n1C` > 100 µM
